# TGI values compiled below
- Test system: LOX IMVI melanoma
- test: NCI tumour cell line growth inhibition, 48 h
Record the value in µM, omitting the unit from your answer.

Here's what some known entries look like.
O=C1NC(N/N=C\C(O)C(O)C(O)C(O)CO)=N/C1=C\c1ccc(Cl)cc1 (configuration not stated); 12.8
CN1CCC(CN2c3ccccc3Sc3ccccc32)C1 (configuration not stated); 30
CCOc1ccccc1C(=O)/C=C/c1cc2ccccc2[nH]c1=O; 1.06
O=C1/C(=C/c2ccc(Cl)cc2)N=C(c2ccccc2)N1c1nc2ccc(Sc3ccccc3)cc2[nH]1; 61.9

// query Jot down TGI (LOX IMVI melanoma) of "COc1ccc2c(c1OC)OC[C@@H](C1=CC(=O)C=C(O)C1=O)C2" .
// result 13.1

// query State TGI (LOX IMVI melanoma) of CCOc1ccc(C2Oc3c(cccc3OC)C=C2[N+](=O)[O-])cc1OCC (configuration not stated) .
// result 5.52
